System: Plasmodium falciparum NF54/iGP1_RE9H ulg8 stage V gametocytes
Assay: gametocyte viability (luciferase signal relative to DMSO control) (% of DMSO control); higher = less gametocytocidal activity, active = 50 or less
Details: concentration: 10 µM; exposure time: 72 h
Where a name gives a salt, the structure may show the parent alone. The campaign covered roughly 1,300 compounds. About 40 (3%) showed activity. What follows is part of a selection rich in actives, with near analogues and random picks from the rest.
Outcomes you can answer with include only these: 1.0 = active, 0.0 = inactive

Please share the test call associated with COc1ccc2[nH]cc(CCNC(C)=O)c2c1 . 0.0

Please share the test call associated with CC(=O)O[C@H]1C[C@@H]2CC[C@@H]3[C@H](CC[C@@]4(C)[C@H]3C[C@H]([N+]3(C)CCCCC3)[C@@H]4OC(C)=O)[C@@]2(C)C[C@@H]1N1CCCCC1 [Vecuronium bromide] . 0.0

Please share the test call associated with Cc1scc2c1N(C(=O)CN1CCN(C)CC1)c1ccccc1NC2=O [Telenzepine dihydrochloride] . 0.0

Please share the test call associated with OCCN(CCO)c1nc(N2CCCCC2)c2nc(N(CCO)CCO)nc(N3CCCCC3)c2n1 . 1.0

Please share the test call associated with O=C(O)CN(CCN(CC(=O)O)CC(=O)O)CCN(CC(=O)O)CC(=O)O . 0.0

Please share the test call associated with CCC(=O)OCC(=O)[C@@]1(OC(=O)CC)[C@H](C)C[C@H]2[C@H]3[C@H]([C@@H](O)C[C@@]21C)[C@@]1(C)C=CC(=O)C=C1C[C@H]3Cl [Alclometasone dipropionate] . 0.0

Please share the test call associated with O=C1C(=O)c2ccccc2C(O)=C1C1CCC(c2ccc(Cl)cc2)CC1 (configuration not stated) . 0.0

Please share the test call associated with COc1cc(N)c(Cl)cc1C(=O)NC1CCN(CCCOc2ccc(F)cc2)CC1OC (configuration not stated) [Cisapride] . 0.0

Please share the test call associated with CCCCCNC(=N)N/N=C/c1c[nH]c2ccc(OC)cc12 [Tegaserod maleate] . 1.0

Please share the test call associated with Cc1c(C)c2c(c(C)c1O)CCC(C)(C(=O)O)O2 (configuration not stated) . 0.0

Please share the test call associated with CCN(CCCc1ccccc1)CCCc1ccccc1 [Alverine citrate salt] . 0.0

Please share the test call associated with O=C1c2cccc(O)c2C(=O)c2c(O)cccc21 [1,8-Dihydroxyanthraquinone] . 0.0

Please share the test call associated with NCCc1cc[nH]n1 [Betazole hydrochloride] . 0.0

Please share the test call associated with CCCNC(C)C(=O)Nc1c(C)csc1C(=O)OC (configuration not stated) [Articaine hydrochloride] . 0.0

Please share the test call associated with CN1CCc2c(c3ccccc3n2Cc2ccccc2)C1 [Mebhydroline 1,5-naphtalenedisulfonate] . 0.0

Please share the test call associated with O=C1OC(CN2CCOCC2)CN1/N=C/c1ccc([N+](=O)[O-])o1 (configuration not stated) [Furaltadone hydrochloride] . 0.0

Please share the test call associated with CN(C)CCOC(C)(c1ccccc1)c1ccccn1 (configuration not stated) [Doxylamine succinate] . 0.0

* * *

Test system: Plasmodium falciparum NF54/iGP1_RE9H ulg8 stage V gametocytes
Experiment: gametocyte viability (luciferase signal relative to DMSO control) (% of DMSO control); higher = less gametocytocidal activity, active = 50 or less
Conditions: concentration: 1 µM; exposure time: 72 h
Where a name gives a salt, the structure may show the parent alone. In all, about 1,300 compounds went through this assay and about 40 (3%) showed activity. The sample as a whole holds a higher share of actives than the screen did.
Exercise: state measured gametocyte viability for each of the compounds provided.
Reply with just the number.

// fetch gametocyte viability given entry COc1cc2nc(N3CCN(C(=O)c4ccco4)CC3)nc(N)c2cc1OC [Prazosin hydrochloride] 90.8

// fetch gametocyte viability given entry CC(C)Nc1cccnc1N1CCN(C(=O)c2cc3cc(NS(C)(=O)=O)ccc3[nH]2)CC1 [Delavirdine] 92.5

// fetch gametocyte viability given entry COc1cc2nc(N3CCN(C(=O)C4COc5ccccc5O4)CC3)nc(N)c2cc1OC (stereo not drawn) [Doxazosin mesylate] 86.5

// fetch gametocyte viability given entry N#Cc1cc(NC(=O)C(=O)O)c(Cl)c(NC(=O)C(=O)O)c1 [Lodoxamide] 91.8

// fetch gametocyte viability given entry CCN(CCCc1ccccc1)CCCc1ccccc1 [Alverine citrate salt] 82.3

// fetch gametocyte viability given entry C=C1C[C@H]2[C@@H]3C=C(C)C4=CC(=O)CC[C@]4(C)[C@H]3CC[C@]2(C)[C@@]1(OC(C)=O)C(C)=O [Melengestrol acetate] 85.4

// fetch gametocyte viability given entry CC(C)NC(=N)NC(=N)Nc1ccc(Cl)cc1 [Proguanil hydrochloride] 100

// fetch gametocyte viability given entry CN1CCN(CCCN2c3ccccc3Sc3ccc(Cl)cc32)CC1 [Prochlorperazine dimaleate] 81.3
